// data source = patent US20240376108A1

% percentage of mass change, Sorption values, listed per item
test: Hygroscopicity experiment (DVS); format: physicochemical; details: Cycle 1, target relative humidity 90.0%, 25° C.
Field: value (include unit after the number)

[
  {
    "Compound": "Cl.N#Cc1cc2n(CC(=O)Nc3ccc(F)cn3)c(=O)c3ccc(C(F)(F)F)nc3n2n1 [Hydrochloride (crystal form A)]",
    "% percentage of mass change, Sorption": "8.018%"
  },
  {
    "Compound": "CS(=O)(=O)O.N#Cc1cc2n(CC(=O)Nc3ccc(F)cn3)c(=O)c3ccc(C(F)(F)F)nc3n2n1 [Methanesulfonate (crystal form A)]",
    "% percentage of mass change, Sorption": "0.700%"
  },
  {
    "Compound": "N#Cc1cc2n(CC(=O)Nc3ccc(F)cn3)c(=O)c3ccc(C(F)(F)F)nc3n2n1.O=S(=O)(O)O [Sulfate (crystal form B)]",
    "% percentage of mass change, Sorption": "1.010%"
  },
  {
    "Compound": "CCS(=O)(=O)O.N#Cc1cc2n(CC(=O)Nc3ccc(F)cn3)c(=O)c3ccc(C(F)(F)F)nc3n2n1 [Ethanesulfonate (crystal form A)]",
    "% percentage of mass change, Sorption": "1.025%"
  }
]

Then this compound:
**Query** Please report the recorded % percentage of mass change, Sorption for Br.N#Cc1cc2n(CC(=O)Nc3ccc(F)cn3)c(=O)c3ccc(C(F)(F)F)nc3n2n1 [Hydrobromide (crystal form B)] .
**Result** 4.715%

###

Test: Hygroscopicity experiment (DVS)
Format: physicochemical
Conditions: Cycle 2, target relative humidity 60.0%, 25° C.
Description: 7.1 Hygroscopicity experiment of crystal forms of different salts of compound 2-(2-cyano-5-oxo-8-(trifluoromethyl)pyrazolo[1,5-a]pyrido[3,2-e]pyrimidin-4(5H)-yl)-N-(5-fluoropyridin-2-yl)acetamide 7.1.1 Experimental objective: To investigate the hygroscopicity of crystal forms of different salts of compound 2-(2-cyano-5-oxo-8-(trifluoromethyl)pyrazolo[1,5-a]pyrido[3,2-e]pyrimidin-4(5H)-yl)-N-(5-fluoropyridin-2-yl)acetamide at different relative humidity, so as to provide a basis for storage. […]
% percentage of mass change, Desorption values, listed per item
Report the figure in % without appending any unit label.

[
  {
    "Molecule": "Cl.N#Cc1cc2n(CC(=O)Nc3ccc(F)cn3)c(=O)c3ccc(C(F)(F)F)nc3n2n1 [Hydrochloride (crystal form A)]",
    "% percentage of mass change, Desorption, %": 7.738
  },
  {
    "Molecule": "CCS(=O)(=O)O.N#Cc1cc2n(CC(=O)Nc3ccc(F)cn3)c(=O)c3ccc(C(F)(F)F)nc3n2n1 [Ethanesulfonate (crystal form A)]",
    "% percentage of mass change, Desorption, %": 0.321
  },
  {
    "Molecule": "N#Cc1cc2n(CC(=O)Nc3ccc(F)cn3)c(=O)c3ccc(C(F)(F)F)nc3n2n1.O=S(=O)(O)O [Sulfate (crystal form B)]",
    "% percentage of mass change, Desorption, %": 0.529
  }
]

Then this molecule:
**Query** Please report the recorded % percentage of mass change, Desorption for CS(=O)(=O)O.N#Cc1cc2n(CC(=O)Nc3ccc(F)cn3)c(=O)c3ccc(C(F)(F)F)nc3n2n1 [Methanesulfonate (crystal form A)] .
**Result** 0.305

###

assay: Metabolic stability in liver microsome (mouse); format: in vitro ADME
Measurement kind: Mouse Remaining (%, 60 min) (%)
Report the figure in % without appending any unit label.

Check out these entries, answers already filled in.
[
  {
    "Given smiles": "O=C(Cn1c(=O)c2ccc(C(F)(F)F)nc2n2nc(Br)cc12)Nc1ccc(F)cn1",
    "Mouse Remaining (%, 60 min) / %": 92.5
  },
  {
    "Given smiles": "N#Cc1cc2n(CC(=O)Nc3ccc(F)cn3)c(=O)c3ccc(C(F)(F)F)nc3n2n1",
    "Mouse Remaining (%, 60 min) / %": 91.6
  },
  {
    "Given smiles": "O=C(Cn1c(=O)c2ccc(C(F)(F)F)nc2n2nccc12)Nc1ccc(F)cn1",
    "Mouse Remaining (%, 60 min) / %": 99.3
  }
]

Then this compound:
**Query** Please report the recorded Mouse Remaining (%, 60 min) for CCc1cc2n(CC(=O)Nc3ccc(F)cn3)c(=O)c3ccc(C(F)(F)F)nc3n2n1 .
**Result** 81.3

###

% percentage of mass change, Desorption values, listed per item
test: Hygroscopicity experiment (DVS); assay type: physicochemical; settings: Cycle 2, target relative humidity 90.0%, 25° C.
Field: value (include unit after the number)

Check out these entries, answers already filled in.
[
  {
    "Compound": "N#Cc1cc2n(CC(=O)Nc3ccc(F)cn3)c(=O)c3ccc(C(F)(F)F)nc3n2n1.O=S(=O)(O)O [Sulfate (crystal form B)]",
    "% percentage of mass change, Desorption": "1.087%"
  },
  {
    "Compound": "Cl.N#Cc1cc2n(CC(=O)Nc3ccc(F)cn3)c(=O)c3ccc(C(F)(F)F)nc3n2n1 [Hydrochloride (crystal form A)]",
    "% percentage of mass change, Desorption": "7.972%"
  },
  {
    "Compound": "CS(=O)(=O)O.N#Cc1cc2n(CC(=O)Nc3ccc(F)cn3)c(=O)c3ccc(C(F)(F)F)nc3n2n1 [Methanesulfonate (crystal form A)]",
    "% percentage of mass change, Desorption": "0.734%"
  }
]

Then this compound:
**Query** Please report the recorded % percentage of mass change, Desorption for CCS(=O)(=O)O.N#Cc1cc2n(CC(=O)Nc3ccc(F)cn3)c(=O)c3ccc(C(F)(F)F)nc3n2n1 [Ethanesulfonate (crystal form A)] .
**Result** 1.020%

###

assay: Hygroscopicity experiment (DVS); assay type: physicochemical; settings: Cycle 1, target relative humidity 90.0%, 25° C.
Measurement kind: % percentage of mass change, Desorption (%)
Report the figure in % without appending any unit label.

Check out these entries, answers already filled in.
[
  {
    "Compound": "CS(=O)(=O)O.N#Cc1cc2n(CC(=O)Nc3ccc(F)cn3)c(=O)c3ccc(C(F)(F)F)nc3n2n1 [Methanesulfonate (crystal form A)]",
    "Measurement kind": "% percentage of mass change, Desorption",
    "Experimental result": 0.760
  },
  {
    "Compound": "N#Cc1cc2n(CC(=O)Nc3ccc(F)cn3)c(=O)c3ccc(C(F)(F)F)nc3n2n1.O=S(=O)(O)O [Sulfate (crystal form B)]",
    "Measurement kind": "% percentage of mass change, Desorption",
    "Experimental result": 1.118
  }
]

**Query** Please report the recorded % percentage of mass change, Desorption for Br.N#Cc1cc2n(CC(=O)Nc3ccc(F)cn3)c(=O)c3ccc(C(F)(F)F)nc3n2n1 [Hydrobromide (crystal form B)] .
**Result** 4.787

**Query** Continue with Cl.N#Cc1cc2n(CC(=O)Nc3ccc(F)cn3)c(=O)c3ccc(C(F)(F)F)nc3n2n1 [Hydrochloride (crystal form A)]
**Result** 8.071

**Query** Continue with CCS(=O)(=O)O.N#Cc1cc2n(CC(=O)Nc3ccc(F)cn3)c(=O)c3ccc(C(F)(F)F)nc3n2n1 [Ethanesulfonate (crystal form A)]
**Result** 1.135

###

% percentage of mass change, Desorption values, listed per item
test: Hygroscopicity experiment (DVS); type: physicochemical; settings: Cycle 1, target relative humidity 10.0%, 25° C.

Check out these entries, answers already filled in.
[
  {
    "Molecule": "Cl.N#Cc1cc2n(CC(=O)Nc3ccc(F)cn3)c(=O)c3ccc(C(F)(F)F)nc3n2n1 [Hydrochloride (crystal form A)]",
    "% percentage of mass change, Desorption": "0.130%"
  },
  {
    "Molecule": "CS(=O)(=O)O.N#Cc1cc2n(CC(=O)Nc3ccc(F)cn3)c(=O)c3ccc(C(F)(F)F)nc3n2n1 [Methanesulfonate (crystal form A)]",
    "% percentage of mass change, Desorption": "0.030%"
  },
  {
    "Molecule": "CCS(=O)(=O)O.N#Cc1cc2n(CC(=O)Nc3ccc(F)cn3)c(=O)c3ccc(C(F)(F)F)nc3n2n1 [Ethanesulfonate (crystal form A)]",
    "% percentage of mass change, Desorption": "0.042%"
  }
]

Then this molecule:
**Query** Please report the recorded % percentage of mass change, Desorption for N#Cc1cc2n(CC(=O)Nc3ccc(F)cn3)c(=O)c3ccc(C(F)(F)F)nc3n2n1.O=S(=O)(O)O [Sulfate (crystal form B)] .
**Result** 0.087%

###

% percentage of mass change, Sorption values, listed per item
assay: Hygroscopicity experiment (DVS); assay type: physicochemical; conditions: Cycle 1, target relative humidity 50.0%, 25° C.
Report the figure in % without appending any unit label.

Check out these entries, answers already filled in.
[
  {
    "Compound": "N#Cc1cc2n(CC(=O)Nc3ccc(F)cn3)c(=O)c3ccc(C(F)(F)F)nc3n2n1.O=S(=O)(O)O [Sulfate (crystal form B)]",
    "Measurement kind": "% percentage of mass change, Sorption",
    "Experimental result": 0.376
  },
  {
    "Compound": "Br.N#Cc1cc2n(CC(=O)Nc3ccc(F)cn3)c(=O)c3ccc(C(F)(F)F)nc3n2n1 [Hydrobromide (crystal form B)]",
    "Measurement kind": "% percentage of mass change, Sorption",
    "Experimental result": 4.233
  },
  {
    "Compound": "CCS(=O)(=O)O.N#Cc1cc2n(CC(=O)Nc3ccc(F)cn3)c(=O)c3ccc(C(F)(F)F)nc3n2n1 [Ethanesulfonate (crystal form A)]",
    "Measurement kind": "% percentage of mass change, Sorption",
    "Experimental result": 0.231
  },
  {
    "Compound": "CS(=O)(=O)O.N#Cc1cc2n(CC(=O)Nc3ccc(F)cn3)c(=O)c3ccc(C(F)(F)F)nc3n2n1 [Methanesulfonate (crystal form A)]",
    "Measurement kind": "% percentage of mass change, Sorption",
    "Experimental result": 0.222
  }
]

Then this compound:
**Query** Please report the recorded % percentage of mass change, Sorption for Cl.N#Cc1cc2n(CC(=O)Nc3ccc(F)cn3)c(=O)c3ccc(C(F)(F)F)nc3n2n1 [Hydrochloride (crystal form A)] .
**Result** 7.466
